# Test system: TXA2 receptor (Homo sapiens, UniProt P21731)
# Construct: The human platelet membrane fraction was prepared in accordance with Experiment 1 (1); from tissue; host or cells: human platelet membrane fraction from blood of healthy volunteers
# Sequence (P21731 whole entry): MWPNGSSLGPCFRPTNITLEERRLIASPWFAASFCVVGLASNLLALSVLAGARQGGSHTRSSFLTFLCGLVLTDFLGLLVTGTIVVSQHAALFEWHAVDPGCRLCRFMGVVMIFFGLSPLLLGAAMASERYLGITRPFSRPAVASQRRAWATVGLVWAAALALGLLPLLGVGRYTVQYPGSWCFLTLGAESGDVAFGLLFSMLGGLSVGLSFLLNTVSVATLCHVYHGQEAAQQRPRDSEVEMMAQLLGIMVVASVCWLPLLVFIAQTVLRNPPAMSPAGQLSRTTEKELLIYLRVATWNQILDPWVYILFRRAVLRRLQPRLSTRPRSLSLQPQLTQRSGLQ
# Assay explanation: Binding activity to TXA2 receptor ([3H](+)-S-145 sodium salt, human platelet membrane fraction)
# Settings: human platelet membrane fraction; 2 nM [3H](+)-S-145 sodium salt; read-out: Binding activity to TXA2 receptor in human platelet membrane fraction IC50
Measured endpoint: IC50 (µM)

Worked cases, IC50 given:
>  <Smiles text>
O=C(O)CCC/C=C\C[C@H]1[C@@H]2CC[C@@H](C2)[C@@H]1NC(=O)c1ccc(S(=O)(=O)n2cccc2)s1

>  <Measured endpoint>
IC50

>  <Unit of measure>
µM

>  <Recorded value>
0.003

$$$$
>  <Smiles text>
CC1(C)[C@H]2C[C@H](C/C=C\CCCC(=O)O)[C@@H](NC(=O)c3ccc(S(=O)(=O)c4cccs4)s3)[C@@H]1C2

>  <Measured endpoint>
IC50

>  <Unit of measure>
µM

>  <Recorded value>
0.0036

$$$$

I: O=C(O)CCC/C=C\C[C@H]1[C@@H]2CC[C@@H](C2)[C@@H]1NC(=O)c1csc2c(Cc3ccccc3)cccc12
II: Cc1ccc(Cc2ccc(C(=O)N[C@H]3[C@H]4CC[C@H](C4)[C@@H]3C/C=C\CCCC(=O)O)s2)s1
Input pair: I , II . Output: entry with lower IC50. The response must carry the label of the picked entry.
I
